- TARGET SYSTEM: cJun (Homo sapiens)
- Construct: The human cJun bZIP domain spans from Arg252 to Leu308; His-SUMO (N, cleaved yes); AS cap (two residues Ala-Ser) (N); GAP cap (three residues Gly-Ala-Pro) (C); made in house; host or cells: E. coli (pET21-His-SUMO plasmid)
- ASSAY REMARKS: Isothermal titration calorimetry, binding to cJun
- COND: ITC, 10 µM antagonist peptide injected into 1 µM cJun, 10 mM potassium phosphate, 150 mM KF, 5 mM TCEP, pH 7.4; one site model; average of two independent experiments, one SD
MEASUREMENT KIND: Kd (nM)
Answers are plain numbers, in nM.

Lookup: Sample LEQRAEELARENEELEKEAEELEQELDELQAEIEQLEERNYALRKEIEDLQKQLEKL [A-FosW, N-terminal AS and C-terminal GAP caps, 6xHis-tagged] — what was its Kd?
Found: 88.3

----------
- TARGET SYSTEM: cJun/TRE DNA interaction (Homo sapiens, UniProt P05412)
- Construct: The human cJun bZIP domain spans from Arg252 to Leu308; His-SUMO (N, cleaved yes); AS cap (two residues Ala-Ser) (N); GAP cap (three residues Gly-Ala-Pro) (C); made in house; host or cells: E. coli (pET21-His-SUMO plasmid)
- Sequence (P05412 252-308): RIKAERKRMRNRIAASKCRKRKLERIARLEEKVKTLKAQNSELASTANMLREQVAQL
- ASSAY REMARKS: CD TRE DNA peak shift, antagonism of cJun/TRE DNA interaction
- Type: biochemical
- COND: cJun 20 μM, TRE DNA 5 μM, DNA peak ~281 nm, Hill equation; three independent experiments, one SD; pH 7.4
Where no end group is shown, it is not given here.
MEASUREMENT KIND: IC50
Remember to put the unit after the number in your answer.

macromolecule_sequence="LEQRAEELARENEELEKEAEELEQELDELQAEIEQLEERNYALRKEIEDLQKQLEKL [A-FosW, N-terminal AS and C-terminal GAP caps, 6xHis-tagged]" measurement_kind=IC50 recorded_measurement="16 µM"

Please find the next sequence below.
Lookup: What IC50 appears in the records for this sequence with cJun/TRE DNA interaction (Homo sapiens, UniProt P05412)? MASLDELQAEIEQLEERNYALRKEIEDLQKQLEKLGAPHHHHHH [FosW, reference compound]
Found: 120 µM
